assay: LC-MS/MS quantitation of drugs in single-point patient plasma samples (therapeutic drug monitoring); type: in vivo, human; conditions: human, plasma; patient 8; PAL 125 mg daily; sampling day 27 (off-treatment week)
observable: concentration at 27 day

Exercise: Retrieve concentration at 27 day measured for CC(=O)c1c(C)c2cnc(Nc3ccc(N4CCNCC4)cn3)nc2n(C2CCCC2)c1=O [PAL, palbociclib] and print it.
Key: 7.55 ng/mL

---

experiment: Clinical pharmacokinetic evaluation of RIB in one patient, first day of a treatment cycle, non-compartmental analysis; type: in vivo, human; details: human, plasma, t 0.50 h, 600 mg oral dose, read-out: CRIB (ng/mL) plasma concentration
observable: concentration at 0.5 h
Could you give the number and then its unit, please?

Exercise: Name the recorded concentration at 0.5 h of the compound listed here: CN(C)C(=O)c1cc2cnc(Nc3ccc(N4CCNCC4)cn3)nc2n1C1CCCC1
Key: 1240 ng/mL

---

assay: Stability of the analytes in plasma (bench top, autosampler, freeze-thaw, long-term); assay type: physicochemical, human; settings: plasma, higher QC level (RIB 2500, ABE 1500, PAL 250, ANA 100, LET 250, FUL 500 ng/mL), N = 3
observable: Stability Bias (%) 2 FT Cycles (30 min, −18–25 °C)
Answer by giving the amount and then stating its unit.

Examples with their reported Stability Bias (%) 2 FT Cycles (30 min, −18–25 °C) follow.
| molecule | value.reported |
| --- | --- |
| N#Cc1ccc(C(c2ccc(C#N)cc2)n2cncn2)cc1 | −0.26% |
| C[C@]12CC[C@@H]3c4ccc(O)cc4C[C@@H](CCCCCCCCC[S+]([O-])CCCC(F)(F)C(F)(F)F)[C@H]3[C@@H]1CC[C@@H]2O (stereo partly drawn) | 4.49% |

Exercise: Read the entry CC(C)(C#N)c1cc(Cn2cncn2)cc(C(C)(C)C#N)c1 and write its reported Stability Bias (%) 2 FT Cycles (30 min, −18–25 °C).
Key: 8.39%

Exercise: Find the measured Stability Bias (%) 2 FT Cycles (30 min, −18–25 °C) of CC(=O)c1c(C)c2cnc(Nc3ccc(N4CCNCC4)cn3)nc2n(C2CCCC2)c1=O and report it.
Key: −1.65%

Exercise: Provide Stability Bias (%) 2 FT Cycles (30 min, −18–25 °C) value for the following molecule: CCN1CCN(Cc2ccc(Nc3ncc(F)c(-c4cc(F)c5nc(C)n(C(C)C)c5c4)n3)nc2)CC1
Key: 5.68%

Exercise: Specify measured Stability Bias (%) 2 FT Cycles (30 min, −18–25 °C) for CN(C)C(=O)c1cc2cnc(Nc3ccc(N4CCNCC4)cn3)nc2n1C1CCCC1 .
Key: −1.66%

---

experiment: Clinical pharmacokinetic evaluation of RIB in one patient, first day of a treatment cycle, non-compartmental analysis; format: in vivo, human; conditions: human, plasma, t 3.00 h, 600 mg oral dose, read-out: CRIB (ng/mL) plasma concentration
observable: concentration at 3 h (ng/mL)
API: value field is a number in ng/mL; no unit string.

Exercise: Provide concentration at 3 h value for the following compound: CN(C)C(=O)c1cc2cnc(Nc3ccc(N4CCNCC4)cn3)nc2n1C1CCCC1 [RIB, ribociclib]
Key: 1830

---

The compounds listed here are annotated with their Stability Bias (%) 3 FT Cycles (30 min, −18–25 °C).
Experiment: Stability of the analytes in plasma (bench top, autosampler, freeze-thaw, long-term)
Assay type: physicochemical, human
Conditions: plasma, higher QC level (RIB 2500, ABE 1500, PAL 250, ANA 100, LET 250, FUL 500 ng/mL), N = 3
Experimental: Stability of the stock and working solutions was determined in the preliminary studies. […] Patient plasma samples were stored long-term at −80 °C. Since adequate stability of plasma samples was proven at −18 °C, it was deemed acceptable at lower temperatures as well. Lower- and higher-concentration QC samples were prepared in triplicate for each condition and time point and were analyzed against QC samples freshly prepared in triplicate.
Provide the reading as a plain figure in %.

| compound | value.reported |
| --- | --- |
| CN(C)C(=O)c1cc2cnc(Nc3ccc(N4CCNCC4)cn3)nc2n1C1CCCC1 | −4.69 |
| CC(C)(C#N)c1cc(Cn2cncn2)cc(C(C)(C)C#N)c1 | −0.69 |
| N#Cc1ccc(C(c2ccc(C#N)cc2)n2cncn2)cc1 | −7.61 |

Exercise: Look up and report measured Stability Bias (%) 3 FT Cycles (30 min, −18–25 °C) for this entry: CC(=O)c1c(C)c2cnc(Nc3ccc(N4CCNCC4)cn3)nc2n(C2CCCC2)c1=O
Key: −7.90

Exercise: Look up Stability Bias (%) 3 FT Cycles (30 min, −18–25 °C) of C[C@]12CC[C@@H]3c4ccc(O)cc4C[C@@H](CCCCCCCCC[S+]([O-])CCCC(F)(F)C(F)(F)F)[C@H]3[C@@H]1CC[C@@H]2O (stereo partly drawn) and report it.
Key: −7.51

Exercise: Output measured Stability Bias (%) 3 FT Cycles (30 min, −18–25 °C) for this item: CCN1CCN(Cc2ccc(Nc3ncc(F)c(-c4cc(F)c5nc(C)n(C(C)C)c5c4)n3)nc2)CC1
Key: 1.13

---

assay: LC-MS/MS quantitation of drugs in single-point patient plasma samples (therapeutic drug monitoring); assay type: in vivo, human; conditions: human, plasma, oral; patient 7; RIB 600 mg daily; sampling day 27 (off-treatment week)
observable: concentration at 27 day (ng/mL)
Kindly answer with a numeric value in ng/mL, unit omitted.

Exercise: Let me know recorded concentration at 27 day for CN(C)C(=O)c1cc2cnc(Nc3ccc(N4CCNCC4)cn3)nc2n1C1CCCC1 , thanks.
Key: 40.7

---

assay: LC-MS/MS quantitation of drugs in single-point patient plasma samples (therapeutic drug monitoring); format: in vivo, human; conditions: human, plasma, oral; patient 3; RIB 600 mg daily; sampling day 16 (trough, steady state)
observable: concentration at 16 day (ng/mL)
Use ng/mL as the unit, but write only the number.

Exercise: Note concentration at 16 day for the molecule shown: CN(C)C(=O)c1cc2cnc(Nc3ccc(N4CCNCC4)cn3)nc2n1C1CCCC1
Key: 682

---

assay: Clinical pharmacokinetic evaluation of RIB in one patient, first day of a treatment cycle, non-compartmental analysis; type: in vivo, human; conditions: human, plasma, t 12.00 h, 600 mg oral dose, read-out: CRIB (ng/mL) plasma concentration
observable: concentration at 12 h (ng/mL)
Numeric only. Scale: ng/mL

Exercise: Find the measured concentration at 12 h of CN(C)C(=O)c1cc2cnc(Nc3ccc(N4CCNCC4)cn3)nc2n1C1CCCC1 and report it.
Key: 1500

---

Listing: Stability Bias (%) Bench Top (2 h, 25 °C) of selected molecules
assay: Stability of the analytes in plasma (bench top, autosampler, freeze-thaw, long-term); assay type: physicochemical, human; settings: unprocessed plasma, lower QC level (RIB 62.5, ABE 37.5, PAL 6.2, ANA 2.5, LET 6.25, FUL 12.5 ng/mL), N = 3, vs fresh QC
Note: unit % is implicit; provide only the numeric part.

Solved entries:
| molecule | value.reported |
| --- | --- |
| C[C@]12CC[C@@H]3c4ccc(O)cc4C[C@@H](CCCCCCCCC[S+]([O-])CCCC(F)(F)C(F)(F)F)[C@H]3[C@@H]1CC[C@@H]2O (stereo partly drawn) [FUL, fulvestrant] | −9.36 |
| CC(=O)c1c(C)c2cnc(Nc3ccc(N4CCNCC4)cn3)nc2n(C2CCCC2)c1=O [PAL, palbociclib] | 3.08 |
| N#Cc1ccc(C(c2ccc(C#N)cc2)n2cncn2)cc1 [LET, letrozole] | −6.81 |
| CC(C)(C#N)c1cc(Cn2cncn2)cc(C(C)(C)C#N)c1 [ANA, anastrozole] | −10.33 |
| CCN1CCN(Cc2ccc(Nc3ncc(F)c(-c4cc(F)c5nc(C)n(C(C)C)c5c4)n3)nc2)CC1 [ABE, abemaciclib] | 9.09 |

Continue with the next molecule.
Exercise: Provide one value: measured Stability Bias (%) Bench Top (2 h, 25 °C) of CN(C)C(=O)c1cc2cnc(Nc3ccc(N4CCNCC4)cn3)nc2n1C1CCCC1 [RIB, ribociclib]
Key: 6.01

---

# Lookup of reported Stability Bias (%) 3 FT Cycles (30 min, −18–25 °C) keyed by entry
assay: Stability of the analytes in plasma (bench top, autosampler, freeze-thaw, long-term); format: physicochemical, human; settings: plasma, lower QC level (RIB 62.5, ABE 37.5, PAL 6.2, ANA 2.5, LET 6.25, FUL 12.5 ng/mL), N = 3
Output spec: scalar in %, unitless text.

Solved cases below.
| molecule | units.symbol | value.reported |
| --- | --- | --- |
| CN(C)C(=O)c1cc2cnc(Nc3ccc(N4CCNCC4)cn3)nc2n1C1CCCC1 | % | 6.00 |
| CC(=O)c1c(C)c2cnc(Nc3ccc(N4CCNCC4)cn3)nc2n(C2CCCC2)c1=O | % | 2.81 |
| CC(C)(C#N)c1cc(Cn2cncn2)cc(C(C)(C)C#N)c1 | % | −3.98 |
| CCN1CCN(Cc2ccc(Nc3ncc(F)c(-c4cc(F)c5nc(C)n(C(C)C)c5c4)n3)nc2)CC1 | % | 14.07 |
| C[C@]12CC[C@@H]3c4ccc(O)cc4C[C@@H](CCCCCCCCC[S+]([O-])CCCC(F)(F)C(F)(F)F)[C@H]3[C@@H]1CC[C@@H]2O (stereo partly drawn) | % | −8.90 |

Exercise: Please report Stability Bias (%) 3 FT Cycles (30 min, −18–25 °C) for the following molecule: N#Cc1ccc(C(c2ccc(C#N)cc2)n2cncn2)cc1
Key: −3.50
